Assay: Cytotoxicity against human epidermoid carcinoma KB cells
Assay type: functional, cell-based
Reported IC50 values for a set of compounds
Please give a number only; it is taken to be in µg/mL.

[
  {
    "Compound": "C=C1[C@@H](O)C[C@H](OC(C)=O)[C@@]2(C)[C@@H](OC(C)=O)[C@H](OC(=O)c3ccccc3)C3=C(C)[C@@H](O)C[C@@]3(C(C)(C)O)[C@@H](OC(C)=O)[C@H]12 [TAXCHININ A]",
    "IC50 / µg/mL": 0.4
  }
]

What IC50 value was documented for this compound, CCCCCC(=O)NC(c1ccccc1)[C@@H](O)C(=O)O[C@H]1C[C@@]2(O)[C@@H](OC(=O)c3ccccc3)[C@@H]3[C@]4(OC(C)=O)CO[C@@H]4C[C@H](O)[C@@]3(C)C(=O)[C@H](O)C(=C1C)C2(C)C (stereo not given in full) ?
0.0017
